Biological target: HiBit-BRG1 fusion protein (Homo sapiens)
Construct: expressed in transfected cells
Sequence (P51532 whole entry, the tested form may be a part): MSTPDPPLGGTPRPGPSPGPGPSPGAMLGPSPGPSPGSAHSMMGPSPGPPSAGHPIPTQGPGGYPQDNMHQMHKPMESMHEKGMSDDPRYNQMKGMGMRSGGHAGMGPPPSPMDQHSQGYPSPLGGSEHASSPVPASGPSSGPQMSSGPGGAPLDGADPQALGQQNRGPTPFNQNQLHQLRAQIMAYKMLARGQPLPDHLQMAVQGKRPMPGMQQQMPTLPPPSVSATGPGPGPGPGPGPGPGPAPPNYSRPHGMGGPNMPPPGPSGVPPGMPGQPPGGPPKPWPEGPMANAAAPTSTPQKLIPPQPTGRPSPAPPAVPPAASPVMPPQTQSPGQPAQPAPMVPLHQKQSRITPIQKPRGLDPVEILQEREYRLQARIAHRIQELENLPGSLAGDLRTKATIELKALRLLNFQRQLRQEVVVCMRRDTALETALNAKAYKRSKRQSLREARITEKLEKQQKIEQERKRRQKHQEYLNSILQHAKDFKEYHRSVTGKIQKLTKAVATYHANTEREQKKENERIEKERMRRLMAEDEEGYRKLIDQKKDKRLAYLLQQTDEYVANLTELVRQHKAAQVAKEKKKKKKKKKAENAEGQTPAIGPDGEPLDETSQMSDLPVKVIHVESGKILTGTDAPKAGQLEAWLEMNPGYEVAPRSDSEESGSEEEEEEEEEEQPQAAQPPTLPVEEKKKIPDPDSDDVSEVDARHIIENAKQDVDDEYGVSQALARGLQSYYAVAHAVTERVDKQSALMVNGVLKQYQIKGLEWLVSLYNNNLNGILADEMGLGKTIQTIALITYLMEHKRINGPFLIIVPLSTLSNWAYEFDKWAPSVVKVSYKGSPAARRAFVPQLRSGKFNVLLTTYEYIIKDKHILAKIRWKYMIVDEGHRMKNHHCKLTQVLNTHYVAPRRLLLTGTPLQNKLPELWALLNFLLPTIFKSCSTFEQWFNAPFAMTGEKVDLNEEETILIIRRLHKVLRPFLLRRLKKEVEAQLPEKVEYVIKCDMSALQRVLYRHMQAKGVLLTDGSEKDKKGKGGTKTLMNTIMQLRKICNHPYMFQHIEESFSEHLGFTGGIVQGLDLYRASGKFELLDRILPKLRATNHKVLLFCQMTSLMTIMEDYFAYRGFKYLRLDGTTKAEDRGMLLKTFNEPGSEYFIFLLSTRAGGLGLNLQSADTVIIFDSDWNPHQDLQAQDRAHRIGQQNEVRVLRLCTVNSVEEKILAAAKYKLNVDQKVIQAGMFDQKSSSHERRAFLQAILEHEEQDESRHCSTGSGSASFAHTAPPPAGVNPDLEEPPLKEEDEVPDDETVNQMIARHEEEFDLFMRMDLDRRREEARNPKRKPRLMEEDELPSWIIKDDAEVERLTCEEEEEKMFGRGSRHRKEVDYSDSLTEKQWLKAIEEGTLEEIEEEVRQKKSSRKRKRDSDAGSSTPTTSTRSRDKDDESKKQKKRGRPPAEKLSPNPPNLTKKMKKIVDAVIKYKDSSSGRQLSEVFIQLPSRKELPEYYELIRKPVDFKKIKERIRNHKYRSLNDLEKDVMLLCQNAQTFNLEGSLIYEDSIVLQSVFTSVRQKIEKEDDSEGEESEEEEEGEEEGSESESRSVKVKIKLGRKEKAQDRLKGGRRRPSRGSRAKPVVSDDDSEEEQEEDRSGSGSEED
Assay: HiBiT-BRG1 cell-based degradation assay (Nano-Glo HiBiT Lytic Detection, 24 h)
Conditions: HeLa cell line expressing HiBit-BRG1 and LgBit, read-out: BRG1 HiBit Degradation Maximum (%)
Listed here are molecules together with their documented Dmax.

Cc1ncsc1-c1ccc([C@H](C)NC(=O)[C@@H]2C[C@@H](O)CN2C(=O)[C@@H](c2cc(N3CCC(C(=O)N[C@H]4CCc5[nH]c6nnc(-c7ccccc7O)cc6c5C4)CC3)no2)C(C)C)cc1 [Compound 144] : > 50%
Cc1ncsc1-c1ccc([C@H](C)NC(=O)[C@@H]2C[C@@H](O)CN2C(=O)[C@@H](c2cc(OCCN3CC[C@H](c4cc5cc(-c6ccccc6O)nnc5[nH]4)C3)no2)C(C)C)cc1 (racemic) [Compound 280] : < 50%
Cc1ncsc1-c1ccc([C@H](C)NC(=O)[C@@H]2C[C@@H](O)CN2C(=O)[C@@H](c2cc(OCCN3CC[C@H](c4[nH]c5nnc(-c6ccccc6O)cc5c4C)C3)no2)C(C)C)cc1 (racemic) [Compound 258] : > 75%
Cc1ncsc1-c1ccc([C@H](C)NC(=O)[C@@H]2C[C@@H](O)CN2C(=O)[C@@H](c2cc(OCCCN3CCN(Cc4cc5cc(-c6ccccc6O)nnc5[nH]4)CC3)no2)C(C)C)cc1 (racemic) [Compound 214] : > 75%

// Dmax lookup, molecule = Cc1ncsc1-c1ccc([C@H](C)NC(=O)[C@@H]2C[C@@H](O)CN2C(=O)[C@@H](c2cc(OCCN3CC4(CNc5nnc(-c6ccccc6O)cc54)C3)no2)C(C)C)cc1 (racemic) [Compound 177] , result: < 50%
